All figures here come from ChEMBL document CHEMBL1629500.

Tested on: Mus musculus
procedure.details: Anticonvulsant activity in ip dosed mouse assessed as inhibition of maximum electric shock-induced hind limb tonic extension after 4 hrs
Assay type: functional
measurement.context: Hindlimb, read-out: MED
Field: minimal effective dose. Provide a value for each of the compounds that follow.
Numbers only, in mg/kg.

Below: 6 compounds and their reported minimal effective dose.
{"columns": ["compound", "minimal effective dose [mg/kg]"],
 "data": [
  ["CC1(C)CC12NC(=O)N(NC(=O)c1ccc([N+](=O)[O-])cc1)C2=O (stereo unspecified)", 300],
  ["CC1(C)CC12NC(=O)N(NC(=O)c1cccnc1)C2=O (stereo unspecified)", 300],
  ["CC1(C)CC12NC(=O)N(NC(=O)c1ccc(F)cc1)C2=O (stereo unspecified)", 300],
  ["O=C1NC(=O)C(c2ccccc2)(c2ccccc2)N1 [PHENYTOIN]", 30],
  ["COc1ccc(C(=O)NN2C(=O)NC3(CC3(C)C)C2=O)cc1OC (stereo unspecified)", 300],
  ["CC1(C)CC12NC(=O)N(N1C(=O)c3ccccc3C1=O)C2=O (stereo unspecified)", 100]
]}

Give me minimal effective dose for each of these compounds, listed below.
1. CC1(C)CC12NC(=O)N(NC(=O)c1cccs1)C2=O (stereo unspecified)
2. CC1(C)CC12NC(=O)N(NC(=O)c1ccc(Br)cc1)C2=O (stereo unspecified)
3. CN(C)c1ccc(C(=O)NN2C(=O)NC3(CC3(C)C)C2=O)cc1 (stereo unspecified)

(A)
300
300
300

Give me minimal effective dose for each of these compounds, listed below.
1. CC1(C)CC12NC(=O)N(NC(=O)c1ccncc1)C2=O (stereo unspecified)
2. CC1(C)CC12NC(=O)N(NC(=O)c1ccc(C(F)(F)F)cc1)C2=O (stereo unspecified)

(A)
[300, 30]

----------
Field: MED. Provide a value for each of the compounds that follow.
Test system: Mus musculus
procedure.details: Neurotoxicity against ip dosed mouse by rotarod test after 0.5 hrs
Assay type: toxicity, organism-based
measurement.context: in vivo
Provide the measurement as a number trailed by its unit.

Below: 6 compounds and their reported MED.
{"columns": ["compound", "MED"],
 "data": [
  ["CC1(C)CC12NC(=O)N(NC(=O)c1cccs1)C2=O (stereo not drawn)", "100 mg/kg"],
  ["CC1(C)CC12NC(=O)N(NC(=O)c1ccncc1)C2=O (stereo not drawn)", "100 mg/kg"],
  ["O=C1NC(=O)C(c2ccccc2)(c2ccccc2)N1", "100 mg/kg"],
  ["CC1(C)CC12NC(=O)N(NC(=O)c1cccnc1)C2=O (stereo not drawn)", "100 mg/kg"],
  ["CC1(C)CC12NC(=O)N(NC(=O)c1ccccc1)C2=O (stereo not drawn)", "300 mg/kg"],
  ["CC1(C)CC12NC(=O)N(NC(=O)c1ccco1)C2=O (stereo not drawn)", "100 mg/kg"]
]}

Give me MED for each of these compounds, listed below.
1. CC1(C)CC12NC(=O)N(NC(=O)c1ccc(Br)cc1)C2=O (stereo not drawn)
2. COc1cc(C(=O)NN2C(=O)NC3(CC3(C)C)C2=O)cc(OC)c1OC (stereo not drawn)

(A)
300 mg/kg
100 mg/kg

----------
Tested on: Mus musculus
procedure.details: Neurotoxicity against ip dosed mouse by rotarod test after 4 hrs
Type: toxicity, organism-based
measurement.context: in vivo
measurement.type: MED (mg/kg)
Numbers only, in mg/kg.

Below: 5 compounds and their reported MED.
{"columns": ["compound", "obs.value"],
 "data": [
  ["CC1(C)CC12NC(=O)N(NC(=O)c1ccccc1F)C2=O (stereo unspecified)", 300],
  ["COc1ccc(C(=O)NN2C(=O)NC3(CC3(C)C)C2=O)cc1OC (stereo unspecified)", 300],
  ["CC1(C)CC12NC(=O)N(NC(=O)c1ccc(Br)cc1)C2=O (stereo unspecified)", 300],
  ["CC1(C)CC12NC(=O)N(NC(=O)c1cccs1)C2=O (stereo unspecified)", 300],
  ["O=C1NC(=O)C(c2ccccc2)(c2ccccc2)N1", 100]
]}

Next:
(Q) Indicate the recorded MED value for this compound: CC1(C)CC12NC(=O)N(NC(=O)c1cccnc1)C2=O (stereo unspecified)
(A) 300
